# system: T1, soluble αVβ6 headpiece, disulfide-linked (αV headpiece residues 1-594 with M400C); β6 headpiece residues 1-474 … (human, UniProt P06756 31-624; P18564 18-491, Interchain disulfide between αV Cys-400 and β6 Cys-270.)
# T1 construct: The 3C site, ACID/BASE coiled-coils, Strep-II tag and His tags were cut off with 3C protease; The two chains are linked by the introduced disulfide bond; also called modified integrin αVβ6 headpiece dimer; full headpiece
# T1 sequence (P06756 31-624 M430C limits assumed, chain 1 of 2): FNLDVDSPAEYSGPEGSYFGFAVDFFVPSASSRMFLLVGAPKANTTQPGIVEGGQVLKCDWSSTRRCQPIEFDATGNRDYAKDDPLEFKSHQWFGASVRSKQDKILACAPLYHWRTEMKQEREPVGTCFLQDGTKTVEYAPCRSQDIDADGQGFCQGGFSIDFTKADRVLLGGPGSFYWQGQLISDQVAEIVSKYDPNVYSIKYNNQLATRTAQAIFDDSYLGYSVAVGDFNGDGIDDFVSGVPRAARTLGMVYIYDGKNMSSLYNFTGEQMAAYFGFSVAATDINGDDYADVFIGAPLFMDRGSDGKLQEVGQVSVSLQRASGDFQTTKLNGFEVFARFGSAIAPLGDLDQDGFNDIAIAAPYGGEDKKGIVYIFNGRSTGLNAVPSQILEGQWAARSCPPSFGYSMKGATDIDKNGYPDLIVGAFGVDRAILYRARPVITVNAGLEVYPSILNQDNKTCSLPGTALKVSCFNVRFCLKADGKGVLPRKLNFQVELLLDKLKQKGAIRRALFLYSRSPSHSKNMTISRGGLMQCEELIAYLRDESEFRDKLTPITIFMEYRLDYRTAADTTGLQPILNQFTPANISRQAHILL
# T1 sequence (P18564 18-491 I287C limits assumed, chain 2 of 2): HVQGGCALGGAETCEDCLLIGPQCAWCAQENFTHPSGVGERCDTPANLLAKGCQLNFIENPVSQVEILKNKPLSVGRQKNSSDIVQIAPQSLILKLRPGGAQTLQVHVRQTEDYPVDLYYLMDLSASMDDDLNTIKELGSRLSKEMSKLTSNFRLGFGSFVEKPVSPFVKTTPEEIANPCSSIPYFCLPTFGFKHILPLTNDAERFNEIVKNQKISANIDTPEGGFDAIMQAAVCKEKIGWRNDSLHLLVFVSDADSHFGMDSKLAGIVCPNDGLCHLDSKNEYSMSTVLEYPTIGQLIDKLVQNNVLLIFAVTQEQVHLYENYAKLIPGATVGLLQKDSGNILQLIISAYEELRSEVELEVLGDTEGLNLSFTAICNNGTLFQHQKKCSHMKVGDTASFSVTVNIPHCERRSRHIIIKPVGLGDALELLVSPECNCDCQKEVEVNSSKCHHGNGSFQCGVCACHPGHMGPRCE
# measurement protocol: fluorescence anisotropy, competition with FITC-GRGDLGRL on the αVβ6 headpiece
experimental readout: pKd
Give bare numbers, as −log10 of the molar value.

Reference set (2 entries):
binder	pKd
TSGDQKTIK (also called pro-TGF-β2 peptide) [homologous peptide from pro-TGF-β2, which has SGDQ in place of RGDL of pro-TGF-β1]	5.07
RRGDLATIH (also called pro-TGF-β1 peptide) [nonapeptide containing RGD from pro-TGF-β1]	7.99

Now look at this entry.
Exercise: Which pKd reading was recorded for the binder GRGDLGRLK (also called pro-TGF-β3 peptide; TGF-β3 nonapeptide) [nonapeptide containing RGD from pro-TGF-β3 (GRGDLGRLK)] ?
Solution: 8.07

All values here come from patent US20170183390A1.
